Molecular target: GSK3b (GST-full length GSK3b) (Homo sapiens, UniProt P49841)
Construct: GST-full length GSK3b: [SignalChem G08-9G]; purchased SignalChem G08-9G
Sequence (P49841 whole entry): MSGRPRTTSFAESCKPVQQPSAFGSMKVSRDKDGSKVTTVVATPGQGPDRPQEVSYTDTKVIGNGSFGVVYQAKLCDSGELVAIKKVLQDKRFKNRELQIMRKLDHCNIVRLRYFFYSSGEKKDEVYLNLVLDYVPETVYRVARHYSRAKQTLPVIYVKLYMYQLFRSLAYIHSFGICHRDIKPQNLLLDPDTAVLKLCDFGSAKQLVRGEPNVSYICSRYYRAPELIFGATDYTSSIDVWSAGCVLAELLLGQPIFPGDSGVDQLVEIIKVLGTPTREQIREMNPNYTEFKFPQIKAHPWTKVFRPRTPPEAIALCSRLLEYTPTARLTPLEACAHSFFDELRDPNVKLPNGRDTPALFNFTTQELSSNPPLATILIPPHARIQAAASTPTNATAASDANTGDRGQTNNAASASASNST
Assay: GSK3b TR-FRET kinase inhibition assay
Format: biochemical
Details: 2 μM ATP; read-out: GSK3β TR-FRET 2 μM ATP GMean IC50
pIC50: −log10 of the molar value.
measure: pIC50

What value of measured pIC50 is listed for CCC1(c2ccccc2)C2=C(CC(C)(C)CC2=O)Nc2ncc(F)cc21 (single isomer, unassigned) [114 B] ? 5.30 to 6.00

What value of measured pIC50 is listed for CCC1(c2cccc(-c3ccccn3)c2)C2=C(CC(C)(C)CC2=O)Nc2ncccc21 (single isomer, unassigned) [Compound 1016A] ? ≥ 7.00

What value of measured pIC50 is listed for CCC1(c2cccc(-c3ccnc(C)c3C)c2)C2=C(CC(C)(C)CC2=O)Nc2ncc(F)cc21 (single isomer, unassigned) [Compound 1035A] ? 5.30 to 6.00

What value of measured pIC50 is listed for CCC1(c2ccccc2)C2=C(Nc3ncccc31)C(F)C(C)(C)CC2=O (single isomer, unassigned) [Compound 1006A] ? < 5.30

What value of measured pIC50 is listed for CCC1(c2cccc(-c3c(F)cncc3OC)c2)C2=C(CC(C)(C)CC2=O)Nc2ncc(F)cc21 (single isomer, unassigned) [Compound 161B] ? ≥ 7.00

What value of measured pIC50 is listed for CCC1(c2cccc(-c3cnnc(C)c3)c2)C2=C(CC(C)(C)CC2=O)Nc2ncccc21 (single isomer, unassigned) [Compound 1022A] ? 6.00 to 7.00

---

Reported IC50 values follow for various compounds
Target: GSK3a (GST-full length GSK3a) (Homo sapiens)
Construct: GST-full length GSK3a [SignalChem G08-10G]; purchased SignalChem G08-10G
Assay: GSK3a TR-FRET kinase inhibition assay
Format: biochemical
Conditions: 1 mM ATP; Table 3; read-out: GSK3a TR-FRET 1 mM ATP Average IC50

CC1(C)CC(=O)C2=C(C1)Nc1ncccc1C2(C)c1cccc(-c2ccncc2C2CCC2)c1 (single isomer, unassigned) [Compound 151A] : 1 to 5 µM
COc1cncc(F)c1-c1cccc(C2(C)C3=C(CC(C)(C)CC3=O)Nc3ncc(C(F)(F)F)cc32)c1 (single isomer, unassigned) [Compound 174A] : 1 to 5 µM

Next compound, IC50 to be filled in.
What value of measured IC50 is listed for CCC1(c2cccc(-c3cncn3C(C)C)c2)C2=C(CC(C)(C)CC2=O)Nc2ncccc21 (single isomer, unassigned) [Compound 149A] ? 0.1 to 1 µM

---

Target: GSK3a (GST-full length GSK3a) (Homo sapiens, UniProt P49840)
Construct: GST-full length GSK3a [SignalChem G08-10G]; purchased SignalChem G08-10G
Sequence (P49840 whole entry): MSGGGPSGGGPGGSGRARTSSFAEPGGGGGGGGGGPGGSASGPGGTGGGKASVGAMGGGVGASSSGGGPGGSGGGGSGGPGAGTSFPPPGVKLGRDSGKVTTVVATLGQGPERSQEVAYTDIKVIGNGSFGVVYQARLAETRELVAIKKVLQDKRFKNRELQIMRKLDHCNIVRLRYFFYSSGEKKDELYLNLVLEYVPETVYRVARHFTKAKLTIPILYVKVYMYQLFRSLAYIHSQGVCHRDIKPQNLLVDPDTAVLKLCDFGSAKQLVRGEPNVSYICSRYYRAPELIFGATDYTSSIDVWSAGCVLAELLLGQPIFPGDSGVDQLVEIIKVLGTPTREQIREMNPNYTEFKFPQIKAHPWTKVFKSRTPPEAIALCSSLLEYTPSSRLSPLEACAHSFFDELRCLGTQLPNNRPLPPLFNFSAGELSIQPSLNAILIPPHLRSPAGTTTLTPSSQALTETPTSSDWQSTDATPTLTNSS
Experiment: GSK3a TR-FRET kinase inhibition assay
Assay type: biochemical
Conditions: 1 mM ATP; Table 3; read-out: GSK3a TR-FRET 1 mM ATP Average IC50
pIC50: −log10 of the molar value.
Reported pIC50 values follow for various molecules

The examples below pair each entry with its known result.
CC1(C)CC(=O)C2=C(C1)Nc1ncccc1C2(C)c1cccc(-c2ccncc2OCC(F)F)c1 (single isomer, unassigned) [Compound 162B] : 6.00 to 7.00
CCC1(c2cccc(-c3ccnc4c3CCCC4)c2)C2=C(CC(C)(C)CC2=O)Nc2ncc(F)cc21 (single isomer, unassigned) [Compound 165A] : 6.00 to 7.00

Next molecule, pIC50 to be filled in.
What value of measured pIC50 is listed for CC1(C)CC(=O)C2=C(C1)Nc1nccc(F)c1C2(C)c1ccccc1 (single isomer, unassigned) [Compound 105B] ? 5.30 to 6.00

---

Target: GSK3b (GST-full length GSK3b) (Homo sapiens, UniProt P49841)
Construct: GST-full length GSK3b: [SignalChem G08-9G]; purchased SignalChem G08-9G
Experiment: GSK3b TR-FRET kinase inhibition assay
Assay type: biochemical
Conditions: 1 mM ATP; Table 5; read-out: GSK3β TR-FRET 1 mM ATP Average IC50
measure: IC50

C=Cc1cnc2c(c1C#N)C(C)(c1ccccc1)C1=C(CC(C)(C)CC1=O)N2 (single isomer, unassigned) [607A] : 1 to 5 µM
CC(C)Oc1cccc(C2(C)C3=C(CC(C)(C)CC3=O)Nc3ncc(F)c(C#N)c32)c1 (single isomer, unassigned) [639B] : ≤ 0.1 µM
CC1(C)CC2=C(C(=O)N1)C(C)(c1ccccc1)c1c(ncc(F)c1C#N)N2 (single isomer, unassigned) [604A] : 1 to 5 µM
CN(C)c1cnc2c(c1C#N)C(C)(c1ccccc1)C1=C(CC(C)(C)CC1=O)N2 (single isomer, unassigned) [624B] : 5 to 20 µM
CC(C)Oc1cccc(C2(C)C3=C(CC(C)(C)CC3=O)Nc3ncc(C(F)(F)F)cc32)c1 (single isomer, unassigned) [648B] : 0.1 to 1 µM
CC1(C)CC2=C(C(=O)N1)C(C)(c1ccccc1)c1cc(C(F)(F)F)cnc1N2 (single isomer, unassigned) [625A] : 1 to 5 µM
C=Cc1cnc2c(c1C#N)C(C)(c1ccccc1)C1=C(CC(C)(C)CC1=O)N2 (single isomer, unassigned) [607B] : 5 to 20 µM
Cc1cnc2c(c1C#N)C(C)(c1ccccc1)C1=C(CC(C)(C)CC1=O)N2 (single isomer, unassigned) [603A] : 5 to 20 µM
CC1(C)CC(=O)C2=C(C1)Nc1ncc(C3CCCC3)c(C#N)c1C2(C)c1ccccc1 (single isomer, unassigned) [635A] : 5 to 20 µM
CN1C(=O)C2=C(CC1(C)C)Nc1ncc(C(F)F)c(C#N)c1C2(C)c1ccccc1 (single isomer, unassigned) [632B] : 0.1 to 1 µM

What value of measured IC50 is listed for CC1(C)CC(=O)C2=C(Nc3ncc(C(F)F)c(C#N)c3[C@]2(C)c2ccccc2)[C@H]1F (single isomer, unassigned) [Compound 633A] ? 1 to 5 µM

What value of measured IC50 is listed for CC1(C)CC(=O)C2=C(C1)Nc1ncc(CO)c(C#N)c1C2(C)c1ccccc1 (single isomer, unassigned) [613B] ? 1 to 5 µM

What value of measured IC50 is listed for CC1(C)CC(=O)C2=C(C1)Nc1ncc3ccccc3c1C2(C)c1ccccc1 (single isomer, unassigned) [606B] ? 1 to 5 µM

What value of measured IC50 is listed for CC1(C)CC(=O)C2=C(C1)Nc1ncc(C(F)F)c(C#N)c1C2(C)c1ccccc1 (single isomer, unassigned) [627B] ? 1 to 5 µM

What value of measured IC50 is listed for CN(c1cccc(C2(C)C3=C(CC(C)(C)CC3=O)Nc3ncccc32)c1)c1ncccn1 (single isomer, unassigned) [641B] ? 1 to 5 µM

---

Test system: MDR1-MDCK cell monolayers
Test: MDR1/MDCK permeability assay
Format: in vitro ADME
Settings: A to B; Table 3
measure: MDCK Permeability (MDR1-MDCK); Mean; Papp(A-B) (10^−6 cm/s)

The examples below pair each entry with its known result.
CC1(C)CC(=O)C2=C(C1)Nc1ncccc1C2(C)c1ccccc1 (single isomer, unassigned) [Compound 101A] : 30 10^−6 cm/s
CCC1(c2cccc(-c3c(F)cncc3OC)c2)C2=C(CC(C)(C)CC2=O)Nc2ncccc21 (single isomer, unassigned) [Compound 154A] : 15 10^−6 cm/s
CCC1(c2cccc(-c3c(F)cncc3OC)c2)C2=C(CC(C)(C)CC2=O)Nc2ncc(F)cc21 (single isomer, unassigned) [Compound 161A] : 12 10^−6 cm/s

Next compound, MDCK Permeability (MDR1-MDCK); Mean; Papp(A-B) (10^−6 cm/s) to be filled in.
What value of measured MDCK Permeability (MDR1-MDCK); Mean; Papp(A-B) (10^−6 cm/s) is listed for CCC1(c2cccc(-c3c(C)nn(C)c3C)c2)C2=C(CC(C)(C)CC2=O)Nc2ncccc21 (single isomer, unassigned) [Compound 150A] ? 20 10^−6 cm/s

---

Test system: MDR1-MDCK cell monolayers
Assay: MDR1/MDCK permeability assay
Format: in vitro ADME
Conditions: B to A; Table 4
measure: MDCK Permeability (MDR1-MDCK); Mean; Papp(B-A) (10^−6 cm/s)

The examples below pair each entry with its known result.
CCC1(c2cccc(-c3cc(C)nn3C)c2)C2=C(CC(C)(C)CC2=O)Nc2ncccc21 (single isomer, unassigned) [Compound 1024B] : 31 10^−6 cm/s
CCC1(c2cccc(-c3cncn3C(C)C)c2)C2=C(CC(C)(C)CC2=O)Nc2ncc(F)cc21 (single isomer, unassigned) [Compound 1038B] : 34 10^−6 cm/s
CCC1(c2cccc(-c3c(C)nn(C)c3C)c2)C2=C(CC(C)(C)CC2=O)Nc2ncccc21 (single isomer, unassigned) [Compound 150B] : 29 10^−6 cm/s
CCC1(c2cccc(-c3ccnn3C)c2)C2=C(CC(C)(C)CC2=O)Nc2ncc(F)cc21 (single isomer, unassigned) [Compound 1025A] : 42 10^−6 cm/s
CCC1(c2cccc(-c3ccncc3C)c2)C2=C(CC(C)(C)CC2=O)Nc2ncc(F)cc21 (single isomer, unassigned) [Compound 1031B] : 22 10^−6 cm/s
CCC1(c2cccc(-c3ccnc4c3CCCC4)c2)C2=C(CC(C)(C)CC2=O)Nc2ncccc21 (single isomer, unassigned) [Compound 1039B] : 22 10^−6 cm/s
CCC1(c2cccc(-c3c(F)cncc3OC)c2)C2=C(CC(C)(C)CC2=O)Nc2ncc(F)cc21 (single isomer, unassigned) [Compound 161B] : 33 10^−6 cm/s
CCC1(c2cccc(-c3ccncc3OC)c2)C2=C(CC(C)(C)CC2=O)Nc2ncc(F)cc21 (single isomer, unassigned) [Compound 1037B] : 26 10^−6 cm/s
CCC1(c2ccccc2)C2=C(CC(C)(C)CC2=O)Nc2ncccc21 (single isomer, unassigned) [102 A] : 26 10^−6 cm/s
CCC1(c2cccc(-c3c(F)cncc3OC)c2)C2=C(CC(C)(C)CC2=O)Nc2ncccc21 (single isomer, unassigned) [Compound 154B] : 25 10^−6 cm/s

Next compound, MDCK Permeability (MDR1-MDCK); Mean; Papp(B-A) (10^−6 cm/s) to be filled in.
What value of measured MDCK Permeability (MDR1-MDCK); Mean; Papp(B-A) (10^−6 cm/s) is listed for CCC1(c2cccc(-c3ccnc4c3CCC4)c2)C2=C(CC(C)(C)CC2=O)Nc2ncccc21 (single isomer, unassigned) [Compound 1034B] ? 25 10^−6 cm/s
